Attribution: patent US10206909B2

System: IL-6 (THP-1 cells)
protocolDetails: IL-6 inhibition in LPS-stimulated THP-1 cells (HTRF)
Format: cell-based
assayConditions: Homo sapiens; THP-1 cells, LPS 500 ng/mL, 22 hours, IL6 HTRF
Method: Human Monocyte Cell Culture: Human monocyte cell line (THP-1 cells; Catalog # TIB-202, ATCC, Manassas, Va.) were cultured in Roswell Park Memorial Institute (RPMI) 1640 Medium (Catalog #21870-100, Buffalo, N.Y.) with 1% L-glutamine, 1% HEPES, 1% Sodium Pyruvate, 2% Sodium Bicarbonate supplemented with 100 units/mL penicillin, 50 μg/mL streptomycin, 2-mercaptoethanol (0.05 mM) [basal medium] and 10% fetal bovine serum (Catalog #16140089, Life Technologies, Carlsbad, Calif.) at 37° C. and 5% CO2. […]
readoutType: EC50 (nM)

a. CN(C)c1cncc(-c2ccc3[nH]nc(-c4cc5c(-c6ccoc6)ccnc5[nH]4)c3n2)c1
b. Cc1ccncc1-c1ccc2[nH]nc(-c3cc4c(N5CCCCC5)ccnc4[nH]3)c2n1
Prompt: Which value of EC50 is smaller, the one for a or the one for b ? Return value: the label identifying the chosen record.
Response: a

----------
Tested on: Wnt activity (Sp5-Luc reporter, SW480 colon carcinoma cells)
protocolDetails: Wnt activity screening assay: Sp5-Luc reporter gene assay in SW480 cells
Format: cell-based
assayConditions: Homo sapiens, SW480 cells, overnight incubation
Description: The screening assay for Wnt activity is described as follows. […] SW480 colon carcinoma cells were transduced with a lentiviral vector expressing luciferase with a human Sp5 promoter consisting of a sequence of eight TCF/LEF binding sites. […] Following incubation, 20 μl of BrightGlo luminescence reagent (Promega) was added to each well of the 384-well assay plates. The plates were placed on an orbital shaker for 2 min and then luminescence was quantified using the Envision (Perkin Elmer) plate reader. […]
readoutType: EC50 (µM)

// worked examples, EC50 included
[[record]]
compound = "CCNCc1cncc(-c2ccc3[nH]nc(-c4cc5cccnc5[nH]4)c3n2)c1 [Compound 258]"
tgt = "Wnt activity (Sp5-Luc reporter, SW480 colon carcinoma cells)"
readouttype = "EC50"
endpointunit = "µM"
valuereported = 3.78

[[record]]
compound = "c1csc(-c2ccnc3[nH]c(-c4n[nH]c5ccc(-c6cncc(OC7CCNCC7)c6)nc45)cc23)c1 [Compound 704]"
tgt = "Wnt activity (Sp5-Luc reporter, SW480 colon carcinoma cells)"
readouttype = "EC50"
endpointunit = "µM"
valuereported = 3.71

[[record]]
compound = "CC(C)Nc1cncc(-c2ccc3[nH]nc(-c4cc5c(-c6cccs6)ccnc5[nH]4)c3n2)c1 [Compound 348]"
tgt = "Wnt activity (Sp5-Luc reporter, SW480 colon carcinoma cells)"
readouttype = "EC50"
endpointunit = "µM"
valuereported = 1.34

[[record]]
compound = "CC(C)CC(=O)Nc1cncc(-c2ccc3[nH]nc(-c4cc5c(-c6ccccc6F)ccnc5[nH]4)c3n2)c1 [Compound 58]"
tgt = "Wnt activity (Sp5-Luc reporter, SW480 colon carcinoma cells)"
readouttype = "EC50"
endpointunit = "µM"
valuereported = 0.517

[[record]]
compound = "CN1CCN(c2ccnc3[nH]c(-c4n[nH]c5ccc(-c6cncc(NC(=O)c7ccccc7)c6)nc45)cc23)CC1 [Compound 235]"
tgt = "Wnt activity (Sp5-Luc reporter, SW480 colon carcinoma cells)"
readouttype = "EC50"
endpointunit = "µM"
valuereported = 6.09


I. FC1(F)CCN(Cc2cncc(-c3ccc4[nH]nc(-c5cc6c(N7CCCCC7)ccnc6[nH]5)c4n3)c2)C1 [Compound 194]
II. CN(C)CCNc1cc(F)cc(-c2ccnc3[nH]c(-c4n[nH]c5ccc(-c6cncc(NC(=O)c7ccccc7)c6)nc45)cc23)c1 [Compound 459]
III. c1csc(-c2ccnc3[nH]c(-c4n[nH]c5ccc(-c6cncc(OC7CCCCC7)c6)nc45)cc23)c1 [Compound 703]
IV. FC1(F)CCN(Cc2cncc(-c3ccc4[nH]nc(-c5cc6cccnc6[nH]5)c4n3)c2)C1 [Compound 278]
V. Cc1ccncc1-c1ccc2[nH]nc(-c3cc4c(N5CCCCC5)ccnc4[nH]3)c2n1 [Compound 173]
Prompt: Please give the order of these compounds when sorted by EC50, largest value leading. Reply with the item labels sorted in the order that was asked for.
Response: I, III, V, II, IV
(I: 5.27 µM, III: 3.64 µM, V: 2.36 µM, II: 1.5 µM, IV: 0.104 µM)

1. CN1CCN(c2ccnc3[nH]c(-c4n[nH]c5ccc(-c6cncc(NC(=O)CC(C)(C)C)c6)nc45)cc23)CC1 [Compound 240]
2. CC(C)Nc1cncc(-c2ccc3[nH]nc(-c4cc5c(-c6cccnc6)ccnc5[nH]4)c3n2)c1 [Compound 96]
Prompt: // which entry has the larger EC50 value, 1 or 2 ? Return value: the label identifying the chosen record.
Response: 1

----------
Tested on: SW480 colon cancer cells
protocolDetails: Cell viability assay (CellTiter-Blue)
Type: cell-based
assayConditions: Homo sapiens, 96 h; SW480 cell viability, four days, CellTiter-Blue
readoutType: EC50 (µM)

I. CN(C)Cc1cncc(-c2ccc3[nH]nc(-c4cc5cccnc5[nH]4)c3n2)c1
II. CN1CCN(c2ccnc3[nH]c(-c4n[nH]c5ccc(-c6cncc(NC(=O)CC(C)(C)C)c6)nc45)cc23)CC1
Prompt: Which value of EC50 is smaller, the one for I or the one for II ? Return value: the label identifying the chosen record.
Response: II

----------
Tested on: SW480 colon cancer cells
protocolDetails: Cell viability assay (CellTiter-Blue)
Format: cell-based
assayConditions: Homo sapiens, 96 h; SW480 cell viability, four days, CellTiter-Blue
readoutType: EC50

[[record]]
smiles = "c1cc(-c2ccnc3[nH]c(-c4n[nH]c5ccc(-c6cncc(CNCC7CCCC7)c6)nc45)cc23)ccn1"
readouttype = "EC50"
valuereported = "3.72 µM"

[[record]]
smiles = "c1cncc(-c2ccc3[nH]nc(-c4cc5c(-c6cccnc6)ccnc5[nH]4)c3n2)c1"
readouttype = "EC50"
valuereported = "> 10 µM"

[[record]]
smiles = "Cn1cc(-c2ccc3[nH]nc(-c4cc5cccnc5[nH]4)c3n2)cn1"
readouttype = "EC50"
valuereported = "> 10 µM"


Prompt: Record request: EC50 value, item `c1cc(-c2ccnc3[nH]c(-c4n[nH]c5ccc(-c6cncc(CN7CCCCC7)c6)nc45)cc23)ccn1`
Response: > 10 µM

Prompt: Record request: EC50 value, item `Fc1ccccc1-c1ccnc2[nH]c(-c3n[nH]c4ccc(-c5cncc(CNCc6ccccc6)c5)nc34)cc12`
Response: 2.06 µM

Prompt: Record request: EC50 value, item `Cc1ccncc1-c1ccc2[nH]nc(-c3cc4c(-c5ccncc5)ccnc4[nH]3)c2n1`
Response: > 10 µM

Prompt: Record request: EC50 value, item `CC(C)CC(=O)Nc1cncc(-c2ccc3[nH]nc(-c4cc5c(-c6ccccc6F)ccnc5[nH]4)c3n2)c1`
Response: > 10 µM

----------
System: SW480 colon cancer cells
protocolDetails: Cell viability assay (CellTiter-Blue)
Type: cell-based
assayConditions: Homo sapiens, 96 h; SW480 cell viability, four days, CellTiter-Blue
Method: Representative compounds were screened using the following assay procedure to assess the effect on cell viability as described below. Each compound was dissolved in DMSO as a 10 mM stock and used to prepare compound source plates. […] After incubation, 20 μL of CellTiter-Blue (Promega) was added to each well allowed to incubate for approximately 3 hours. […] This measured fluorescence was used as a readout for cell viability. […]
pEC50: −log10 of the molar value.
readoutType: pEC50

// worked examples, pEC50 included
[[record]]
smiles = "CN(C)Cc1cncc(-c2ccc3[nH]nc(-c4cc5c(N6CCCCC6)ccnc5[nH]4)c3n2)c1"
tgt = "SW480 colon cancer cells"
valuereported = "< 5.00"

[[record]]
smiles = "Fc1cccc(-c2ccnc3[nH]c(-c4n[nH]c5ccc(-c6cccnc6)nc45)cc23)c1"
tgt = "SW480 colon cancer cells"
valuereported = "< 5.00"

[[record]]
smiles = "CC(C)Nc1cncc(-c2ccc3[nH]nc(-c4cc5c(-c6cccs6)ccnc5[nH]4)c3n2)c1"
tgt = "SW480 colon cancer cells"
valuereported = 5.37


Prompt: Record request: pEC50 value, item `O=C(Nc1cncc(-c2ccc3[nH]nc(-c4cc5c(-c6ccccc6F)ccnc5[nH]4)c3n2)c1)C1CC1`
Response: 5.33

Prompt: Record request: pEC50 value, item `O=C(CC1CCNCC1)Nc1cncc(-c2ccc3[nH]nc(-c4cc5c(-c6ccoc6)ccnc5[nH]4)c3n2)c1`
Response: < 5.00

Prompt: Record request: pEC50 value, item `c1cc(-c2ccnc3[nH]c(-c4n[nH]c5ccc(-c6cncc(OCCN7CCCC7)c6)nc45)cc23)ccn1`
Response: < 5.00

Prompt: Record request: pEC50 value, item `c1cc(N2CCCCC2)c2cc(-c3n[nH]c4ccc(C5CCNCC5)nc34)[nH]c2n1`
Response: < 5.00

Prompt: Record request: pEC50 value, item `CN(C)Cc1cncc(-c2ccc3[nH]nc(-c4cc5c(-c6ccccc6F)ccnc5[nH]4)c3n2)c1`
Response: < 5.00
